Sourced from the supplement of paper PMC6555819

Test system: RARg:RXRa (NR concentration 270 nM, RXRa partner concentration 90 nM)
test: PBM binding z-score (relative to random genomic background probes); higher = stronger binding; sequences stand for … in GC…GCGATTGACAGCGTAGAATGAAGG
The threshold is inclusive: PBM binding z-score of exactly 4 counts as criterion met; values below receive criterion not met.

# example entries with known answers
ordered-residues: CATTACGGGTCACGAGGTTATAGCACGACGAGCG
class-assignment: criterion met
--
ordered-residues: ATCTCTAGGTAAAGATAATTCAGTGAATGCAAAT
class-assignment: criterion not met
--
ordered-residues: CAAACTAGATCAAGAGGTCAAAGTCCGCTTCCCG
class-assignment: criterion met

Challenge: Exam item: decide whether the reported PBM binding z-score for `CCGACTGGGGCATAAGGTTGCCATAAGCCAGCCC` is at least 4.
Response given: criterion not met

Challenge: Could you verify whether the entry `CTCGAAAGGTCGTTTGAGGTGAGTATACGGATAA` shows PBM binding z-score of no less than 4?
Response given: criterion met

* * *

Test system: PPARg:RXRa IVT, anti-PPARg (NR concentration 270 nM, RXRa partner concentration 90 nM)
test: PBM binding z-score (relative to random genomic background probes); higher = stronger binding; sequences stand for … in GC…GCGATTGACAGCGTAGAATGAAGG
Respond with true (1) for PBM binding z-score values of 2 and above, false (0) for values below.

Challenge: In plain terms: is recorded PBM binding z-score at least 2 for `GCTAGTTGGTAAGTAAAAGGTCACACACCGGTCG` ?
Response given: true (1)

Challenge: Tell me whether PBM binding z-score is at least 2 here: `ACTAGTTGGTCAGCTGACGTCACACACAATTCGG`
Response given: false (0)

* * *

System: RARa homodimer (NR concentration 270 nM)
test: PBM binding z-score (relative to random genomic background probes); higher = stronger binding; sequences stand for … in GC…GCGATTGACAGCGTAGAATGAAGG
measured-property: PBM binding z-score
Please give the numeric answer without any surrounding text.

ordered-residues: TCTATTAGTTTAAGGGCAACCGACGAGTCCGTTT
target-under-test: RARa homodimer (NR concentration 270 nM)
recorded-result: 1.3

ordered-residues: CATGCTAGGTCAATGGTCAGCTAAAGCAGCTCGC
target-under-test: RARa homodimer (NR concentration 270 nM)
recorded-result: -0.113

ordered-residues: CAGCCTAGGTCAGGGACAGTATAGGAGGAACGTT
target-under-test: RARa homodimer (NR concentration 270 nM)
recorded-result: 0.00135

ordered-residues: GCATATAGGTAATACAAGATGAAAGTCCGATTGT
target-under-test: RARa homodimer (NR concentration 270 nM)
recorded-result: 0.786

ordered-residues: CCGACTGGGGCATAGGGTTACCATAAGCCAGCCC
target-under-test: RARa homodimer (NR concentration 270 nM)
recorded-result: -1.05

Challenge: Fill blank: measured PBM binding z-score of the sequence `CCTAGCAGGCCAACCTGGGTCACTCAAGGCTTGA` is ____.
Response given: 0.141

Challenge: Quick one: PBM binding z-score of `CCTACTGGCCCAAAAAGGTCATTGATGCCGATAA` ?
Response given: 2.16

* * *

Quick list: PBM binding z-score per entry.
Test system: PPARg DBDmut:RXRa IVT, anti-PPARg (DBD mutation: PPARg1 K132A/R137A, NR concentration 270 nM, RXRa partner concentration 90 nM)
test: PBM binding z-score (relative to random genomic background probes); higher = stronger binding; sequences stand for … in GC…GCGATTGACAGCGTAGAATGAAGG
Field format: numeric only.

ordered-residues: GCTGCGAGGTCAGGTTGGTCAGCTAACGGGTACG
PBM binding z-score: -0.42

ordered-residues: TCTTGTAGATCAATGGTTAAGAAAGCCGAAGCCT
PBM binding z-score: 0.47

ordered-residues: TCTCGGAGGACACGAAAGGCCAGAGCTCGACATC
PBM binding z-score: -0.613

ordered-residues: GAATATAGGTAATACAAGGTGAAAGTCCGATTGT
PBM binding z-score: 2.27

ordered-residues: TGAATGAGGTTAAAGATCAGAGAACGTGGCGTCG
PBM binding z-score: 1.38

ordered-residues: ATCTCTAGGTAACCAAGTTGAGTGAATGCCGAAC
PBM binding z-score: 0.787

ordered-residues: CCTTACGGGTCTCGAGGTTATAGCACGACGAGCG
PBM binding z-score: -0.399

ordered-residues: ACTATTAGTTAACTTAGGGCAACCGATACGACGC
PBM binding z-score: 0.677

Challenge: Given the sequence `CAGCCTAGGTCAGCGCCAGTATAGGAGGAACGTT` , what is its reported PBM binding z-score?
Response given: -1.15

Challenge: What measured PBM binding z-score goes with `CCTACTGGGCCATCAGGACATTGATATCAACGTT` ?
Response given: 0.0869
